Provenance of the data: patent US20080306044A1

# assayedTarget: human V2 receptor (Homo sapiens)
# Sequence (P30518 whole entry): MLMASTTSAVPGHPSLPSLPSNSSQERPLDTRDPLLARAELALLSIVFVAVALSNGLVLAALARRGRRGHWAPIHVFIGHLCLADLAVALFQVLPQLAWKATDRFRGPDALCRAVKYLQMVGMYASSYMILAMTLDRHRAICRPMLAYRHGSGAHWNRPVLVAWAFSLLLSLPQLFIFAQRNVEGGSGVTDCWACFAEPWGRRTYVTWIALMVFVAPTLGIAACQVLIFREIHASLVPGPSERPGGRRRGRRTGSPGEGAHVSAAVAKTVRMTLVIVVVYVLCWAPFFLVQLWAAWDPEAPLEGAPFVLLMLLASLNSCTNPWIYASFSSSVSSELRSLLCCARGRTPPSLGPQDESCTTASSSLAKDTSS
# assayName: In-vitro binding assay (3H-arginine-8-vasopressin), V2
# testParameters: membrane containing human V2 receptor; 3H-arginine-8-vasopressin 0.65-0.75 nM
property: pIC50
Remember, pIC50 is on a log scale: it is -log10 of the molar concentration.

A selection of reference data follows.
[[record]]
compound = "O=C(Nc1ccc(C(=O)N2CCC3(CCCC3=NNc3ccccn3)Cc3ccccc32)cc1)c1cc(F)ccc1Cl (centres unmarked)"
experimentalresult = 7.25

[[record]]
compound = "O=C(Nc1ccc(C(=O)N2CCC3(CCCC3=NO)Cc3ccccc32)cc1)c1ccccc1-c1ccccc1 (centres unmarked)"
experimentalresult = 7.57

[[record]]
compound = "O=C(Nc1ccc(C(=O)N2CCC3(CCCC3=NO)Cc3ccccc32)cn1)c1cc(F)ccc1Cl (centres unmarked)"
experimentalresult = 7.15

[[record]]
compound = "NN=C1CCCC12CCN(C(=O)c1ccc(NC(=O)c3ccccc3-c3ccccc3)cc1)c1ccccc1C2 (centres unmarked)"
experimentalresult = 7.62

[[record]]
compound = "COc1cc(C(=O)N2CCC3(CCCC3=NO)Cc3ccccc32)ccc1NC(=O)c1cccc(F)c1 (centres unmarked)"
experimentalresult = 7.06

[[record]]
compound = "Cc1ccc(F)cc1C(=O)Nc1ccc(C(=O)N2CCC3(CCCC3=NO)Cc3ccccc32)cc1 (centres unmarked)"
experimentalresult = 7.59

[[record]]
compound = "Cc1ccccc1C(=O)Nc1ccc(C(=O)N2CCC3(CCCC3=NO)Cc3ccccc32)cc1 (centres unmarked)"
experimentalresult = 7.47

[[record]]
compound = "O=C(Nc1ccc(C(=O)N2CCC3(CCCC3=NO)Cc3ccccc32)cc1)c1cc(F)ccc1Cl (centres unmarked)"
experimentalresult = 7.55

[[record]]
compound = "NCC(=O)NC1CCCC12CCN(C(=O)c1ccc(NC(=O)c3ccccc3-c3ccccc3)cc1)c1ccccc1C2 (centres unmarked)"
experimentalresult = 7.82

[[record]]
compound = "CON=C1CCCC12CCN(C(=O)c1ccc(NC(=O)c3cc(F)ccc3Cl)cc1)c1ccccc1C2 (centres unmarked)"
experimentalresult = 7.36


Field request: pIC50 | item: O=C(Nc1ccc(C(=O)N2CC[C@@]3(CCCC3=NO)Cc3ccccc32)cc1)c1cc(F)ccc1Cl
7.55

Field request: pIC50 | item: COc1cc(C(=O)N2CCC3(CCCC3N)Cc3ccccc32)ccc1NC(=O)c1cc(F)ccc1Cl (centres unmarked)
7.08

Field request: pIC50 | item: NN=C1CCCC12CCN(C(=O)c1ccc(NC(=O)c3cc(F)ccc3Cl)cc1)c1ccccc1C2 (centres unmarked)
7.64

Field request: pIC50 | item: NC1CCCC12CCN(C(=O)c1ccc(NC(=O)c3ccccc3-c3ccccc3)cc1)c1ccccc1C2 (centres unmarked)
6.96

###

# assayedTarget: human V1a receptor (Homo sapiens, UniProt P37288)
# Construct: expressed in transfected cells
# Sequence (P37288 whole entry): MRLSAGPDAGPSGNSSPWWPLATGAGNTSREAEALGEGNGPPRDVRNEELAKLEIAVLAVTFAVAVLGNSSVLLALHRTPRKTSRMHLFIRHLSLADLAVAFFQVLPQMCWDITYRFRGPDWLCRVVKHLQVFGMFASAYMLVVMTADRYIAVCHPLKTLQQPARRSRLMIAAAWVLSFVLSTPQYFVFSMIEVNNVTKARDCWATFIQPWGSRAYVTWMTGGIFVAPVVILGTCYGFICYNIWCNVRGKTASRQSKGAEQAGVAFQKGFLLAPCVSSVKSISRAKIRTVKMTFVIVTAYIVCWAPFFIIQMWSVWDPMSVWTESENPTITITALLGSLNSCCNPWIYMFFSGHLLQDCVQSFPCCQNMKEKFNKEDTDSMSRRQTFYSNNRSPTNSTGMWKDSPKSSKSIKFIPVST
# assayName: In-vitro binding assay (3H-arginine-8-vasopressin), V1a
# testParameters: membrane containing human V1a receptor; 3H-arginine-8-vasopressin 0.65-0.75 nM
# Experimental: Assay buffer is 50 mM Tris-Cl, 5 mM MgCl2, 0.1% BSA (pH 7.5) containing 5 μg/mL of aprotinin, leupeptin, pepstatin, 50 μg/mL bacitracin, and 1 mM Pefabloc (4-(2-aminoethyl)-benzenesulfonyl fluoride, hydrochloride manufactured by Roche Diagnostics Corporation, Indianapolis, Ind. and distributed by Boehringer Mannheim). […] The top of the plate is sealed, and the plate is counted. Non-specific binding is determined by the addition of 1.25 μM arginine-8-vasopressin in those wells. […]
property: IC50 (nM)
Write it as a number; the unit nM goes unstated.

A selection of reference data follows.
[[record]]
compound = "Cc1ccc(F)cc1C(=O)Nc1ccc(C(=O)N2CCC3(CCCC3=NO)Cc3ccccc32)cc1 (centres unmarked) [Cpd 48]"
assayedtarget = "human V1a receptor (Homo sapiens, UniProt P37288)"
experimentalresult = 16

[[record]]
compound = "Cn1ccnc1C1=CCCC12CCN(C(=O)c1ccc(NC(=O)c3cc(F)ccc3Cl)cc1)c1ccccc1C2 (centres unmarked) [Cpd 5]"
assayedtarget = "human V1a receptor (Homo sapiens, UniProt P37288)"
experimentalresult = 9

[[record]]
compound = "O=C(Nc1ccc(C(=O)N2CC[C@@]3(CCCC3=NO)Cc3ccccc32)cc1)c1cc(F)ccc1Cl [Cpd 7]"
assayedtarget = "human V1a receptor (Homo sapiens, UniProt P37288)"
experimentalresult = 8


Field request: IC50 | item: NCCON=C1CCCC12CCN(C(=O)c1ccc(NC(=O)c3cccc(F)c3)cc1)c1ccccc1C2 (centres unmarked) [Cpd 41]
8

Field request: IC50 | item: COc1cc(C(=O)N2CCC3(CCCC3N)Cc3ccccc32)ccc1NC(=O)c1cc(F)ccc1Cl (centres unmarked) [Cpd 8]
16
